The measured values listed here are drawn from ChEMBL document CHEMBL5576114.

# System: 1-deoxy-D-xylulose 5-phosphate reductoisomerase, apicoplastic (Plasmodium falciparum (isolate 3D7), UniProt Q8IKG4)
# Sequence (Q8IKG4 whole entry): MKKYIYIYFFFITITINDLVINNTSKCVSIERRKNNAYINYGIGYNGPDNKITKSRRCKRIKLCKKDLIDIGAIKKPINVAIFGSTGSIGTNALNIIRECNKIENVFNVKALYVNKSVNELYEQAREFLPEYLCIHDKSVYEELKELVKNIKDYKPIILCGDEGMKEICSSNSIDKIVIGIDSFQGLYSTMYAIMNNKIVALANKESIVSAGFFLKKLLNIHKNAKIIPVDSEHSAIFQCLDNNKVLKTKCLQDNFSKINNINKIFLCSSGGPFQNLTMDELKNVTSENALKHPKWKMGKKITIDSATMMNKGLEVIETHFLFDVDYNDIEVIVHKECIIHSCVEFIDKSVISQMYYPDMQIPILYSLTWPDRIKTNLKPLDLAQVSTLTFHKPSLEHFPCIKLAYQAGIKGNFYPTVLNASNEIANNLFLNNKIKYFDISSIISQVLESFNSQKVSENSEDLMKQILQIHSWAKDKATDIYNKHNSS
# Run description: Inhibition of Plasmodium falciparum DXR
Property measured: IC50 (nM)
# unit: nM | format: bare number

Any idea what its IC50 is? The compound is CC(=O)N(O)CCCP(=O)(O)O [FR-900098]
22

----------
# System: 1-deoxy-D-xylulose 5-phosphate reductoisomerase, apicoplastic (Plasmodium falciparum (isolate 3D7), UniProt Q8IKG4)
# Run description: Inhibition of Plasmodium falciparum DXR expressed in Escherichia coli BL21 CodonPlus (DE3)-RIL cells using DOXP as substrate in presence of NADPH by UV-visible spectrophotometry
pIC50: −log10 of the molar value.
// no (0) strictly below 5 in pIC50; yes (1) otherwise

Test whether the compound CC(=O)N(CCC(c1ccc(Cl)c(Cl)c1)P(=O)(O)O)OC(C)c1ccccc1 (configuration not stated) records pIC50 of 5 or higher.
no (0)

Test whether the compound CC(=O)N(CCC(c1ccc(Cl)c(Cl)c1)P(=O)(O)O)OC(C)c1ccc(F)cc1 (configuration not stated) records pIC50 of 5 or higher.
yes (1)

Test whether the compound CC(=O)N(CCC(c1ccc(Cl)c(Cl)c1)P(=O)(O)O)OCc1ccc(C(C)C)cc1 (configuration not stated) records pIC50 of 5 or higher.
no (0)

Test whether the compound COc1ccc(C(C)ON(CCC(c2ccc(Cl)c(Cl)c2)P(=O)(O)O)C(C)=O)cc1 (configuration not stated) records pIC50 of 5 or higher.
yes (1)

Test whether the compound CC(=O)N(CCC(c1ccc(Cl)c(Cl)c1)P(=O)(O)O)OC(C)c1ccc(C)cc1 (configuration not stated) records pIC50 of 5 or higher.
yes (1)

Test whether the compound CC(=O)N(CCC(c1ccc(Cl)c(Cl)c1)P(=O)(O)O)OC(C)c1ccc(Cl)cc1 (configuration not stated) records pIC50 of 5 or higher.
no (0)

----------
# Tested on: Plasmodium falciparum
# Run description: Antiplasmodial activity against Plasmodium falciparum 3D7 assessed as reduction in parasite growth by measuring DNA content after 3 days by PicoGreen staining based FLUOstar omega microplate reader analysis
# Assay type: functional, organism-based
# Reported conditions: 3D7, 72 h
Property measured: pIC50
Scale: negative log10 of molar concentration, which is what pIC50 denotes.

Any idea what its pIC50 is? The molecule is CC(=O)N(CCC(c1ccc(Cl)c(Cl)c1)P(=O)(OCOC(=O)C(C)(C)C)OCOC(=O)C(C)(C)C)OCc1ccc2ccccc2c1 (stereo not given)
4.86

Any idea what its pIC50 is? The molecule is CC(=O)N(CCC(c1ccc(Cl)c(Cl)c1)P(=O)(OCOC(=O)C(C)(C)C)OCOC(=O)C(C)(C)C)OCc1ccc(C(C)C)cc1 (stereo not given)
4.86

Any idea what its pIC50 is? The molecule is CC(=O)N(O)CCC(c1ccc(Cl)c(Cl)c1)P(=O)(OCOC(=O)C(C)(C)C)OCOC(=O)C(C)(C)C (stereo not given)
4.89

Any idea what its pIC50 is? The molecule is CC(=O)N(CCC(c1ccc(Cl)c(Cl)c1)P(=O)(OCOC(=O)C(C)(C)C)OCOC(=O)C(C)(C)C)OCCCCc1ccccc1 (stereo not given)
4.86

Any idea what its pIC50 is? The molecule is CC(=O)N(CCC(c1ccc(Cl)c(Cl)c1)P(=O)(OCOC(=O)C(C)(C)C)OCOC(=O)C(C)(C)C)OCc1ccc(-c2ccccc2)cc1 (stereo not given)
5.06
